experiment: T max in dog; type: ADME, organism-based, Canis lupus familiaris; conditions: in vivo
Readout Kind: Tmax (min)
Your answer is read as min, so omit the unit and give the number.

Q: Look up Tmax: CC(C)c1ccc(NC(=O)N2CCC[C@H]2C(=O)N2CC[C@H]3[C@H]2[C@H](C)C(=O)N3c2nc3ccccc3s2)cc1
A: 4.8

---

experiment: Bioavailability in dog; assay type: ADME, organism-based, Canis lupus familiaris; details: in vivo
Readout Kind: bioavailability (%)
Your answer is read as %, so omit the unit and give the number.

Q: Look up bioavailability: CC(C)c1ccc(NC(=O)N2CCC[C@H]2C(=O)N2CC[C@H]3[C@H]2[C@H](C)C(=O)N3c2nc3ccccc3s2)cc1
A: 29
